# target or test system: human TAS1R2-R317P/TAS1R3-WT (Homo sapiens, UniProt Q7RTX0+Q8TE23, R317P)
# Construct: expressed in transfected cells; host or cells: HEK293T-Gα16gust44
# Sequence (Q8TE23 20-839 R317P): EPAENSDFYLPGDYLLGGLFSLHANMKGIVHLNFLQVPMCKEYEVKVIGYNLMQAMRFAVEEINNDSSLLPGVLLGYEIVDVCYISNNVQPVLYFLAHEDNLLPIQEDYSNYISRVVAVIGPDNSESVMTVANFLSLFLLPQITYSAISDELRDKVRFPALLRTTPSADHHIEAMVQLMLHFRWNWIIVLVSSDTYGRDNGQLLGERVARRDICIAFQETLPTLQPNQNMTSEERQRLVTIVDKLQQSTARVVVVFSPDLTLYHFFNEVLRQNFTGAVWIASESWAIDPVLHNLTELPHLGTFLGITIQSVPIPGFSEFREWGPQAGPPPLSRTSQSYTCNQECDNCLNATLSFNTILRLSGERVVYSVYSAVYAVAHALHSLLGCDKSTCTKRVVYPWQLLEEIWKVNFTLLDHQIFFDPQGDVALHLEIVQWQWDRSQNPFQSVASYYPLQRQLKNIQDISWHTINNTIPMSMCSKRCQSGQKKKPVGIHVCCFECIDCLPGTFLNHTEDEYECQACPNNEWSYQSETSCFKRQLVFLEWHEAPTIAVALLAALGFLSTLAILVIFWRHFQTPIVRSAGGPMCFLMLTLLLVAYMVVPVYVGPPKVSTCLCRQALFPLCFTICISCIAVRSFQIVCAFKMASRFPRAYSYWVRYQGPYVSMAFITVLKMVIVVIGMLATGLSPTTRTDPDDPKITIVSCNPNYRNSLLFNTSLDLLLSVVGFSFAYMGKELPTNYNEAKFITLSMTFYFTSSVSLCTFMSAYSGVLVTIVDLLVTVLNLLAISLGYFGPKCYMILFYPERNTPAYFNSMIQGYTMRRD
# Sequence (Q7RTX0 21-852): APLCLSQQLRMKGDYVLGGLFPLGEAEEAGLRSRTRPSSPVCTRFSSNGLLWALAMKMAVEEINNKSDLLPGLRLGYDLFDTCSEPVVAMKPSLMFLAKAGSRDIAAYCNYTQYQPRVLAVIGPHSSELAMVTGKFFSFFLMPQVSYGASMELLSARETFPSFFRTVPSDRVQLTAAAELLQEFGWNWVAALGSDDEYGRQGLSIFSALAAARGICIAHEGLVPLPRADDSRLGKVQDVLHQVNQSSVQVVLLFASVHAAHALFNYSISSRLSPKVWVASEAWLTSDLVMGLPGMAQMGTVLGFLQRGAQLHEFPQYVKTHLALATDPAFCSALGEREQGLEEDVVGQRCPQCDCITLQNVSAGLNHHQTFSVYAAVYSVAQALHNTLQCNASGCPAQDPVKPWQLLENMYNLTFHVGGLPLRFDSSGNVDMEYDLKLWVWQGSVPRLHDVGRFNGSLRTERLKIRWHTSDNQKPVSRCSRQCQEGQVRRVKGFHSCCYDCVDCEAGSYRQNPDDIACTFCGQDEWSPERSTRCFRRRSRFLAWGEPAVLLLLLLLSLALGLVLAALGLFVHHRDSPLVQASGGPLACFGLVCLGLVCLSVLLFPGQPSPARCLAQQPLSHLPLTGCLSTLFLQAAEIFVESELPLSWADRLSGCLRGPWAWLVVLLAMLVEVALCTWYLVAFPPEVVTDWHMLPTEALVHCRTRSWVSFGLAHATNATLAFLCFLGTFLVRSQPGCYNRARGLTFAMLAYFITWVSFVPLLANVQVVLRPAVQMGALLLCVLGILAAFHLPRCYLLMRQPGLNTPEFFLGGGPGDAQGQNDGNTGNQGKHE
# assay procedure: Calcium mobilisation assay, TAS1R2 variant R317P with TAS1R3-WT
# Assay type: cell-based
readout label: R1 = Variant EC50/WT EC50

Form field: reported R1 = Variant EC50/WT EC50 of `CC1=CC(=O)NS(=O)(=O)O1`
1.0
